tested on: B. subtilis ATCC 6633; experiment: MIC against standard strains (Table 1), B. subtilis ATCC 6633; format: cell-based; conditions: Bacillus subtilis, ATCC6633, Muller-Hinton agar, overnight 37° C., read-out: MIC (minimum growth inhibitory concentration)
Measured MIC by item
// units = µg/mL; emit number, no label

Please review the following examples before continuing.
# query smiles, test result
measured = [
    ("NC(=O)c1cc[n+](C/C=C/C2=C(C(=O)[O-])N3C(=O)[C@@H](NC(=O)/C(=N\\O)c4csc(N)n4)[C@H]3SC2)cc1", 0.2),
    ("CO/N=C(\\C(=O)N[C@@H]1C(=O)N2C(C(=O)[O-])=C(/C=C/C[n+]3cccc(NC(N)=O)c3)CS[C@H]12)c1csc(N)n1", 0.2),
]

Below: the item to evaluate.
Query :: Returns the measured MIC for the input molecule. Input: Nc1nc(/C(=N/O)C(=O)N[C@@H]2C(=O)N3C(C(=O)[O-])=C(/C=C/C[n+]4cccc(-c5csc(N)n5)c4)CS[C@H]23)cs1
Result :: 0.2

###

test system: M. morganii IFO 3848; experiment: MIC against standard strains (Table 1), M. morganii IFO 3848; assay type: cell-based; conditions: Morganella morganii, IFO3848, Muller-Hinton agar, overnight 37° C., read-out: MIC (minimum growth inhibitory concentration)
Measured MIC by item
// units = µg/mL; emit number, no label

Please review the following examples before continuing.
# query smiles, output unit, test result
rows = [
    ("NC(=O)Nc1ccc[n+](C/C=C/C2=C(C(=O)[O-])N3C(=O)[C@@H](NC(=O)/C(=N\\O)c4csc(N)n4)[C@H]3SC2)c1", "µg/mL", 0.025),
    ("CO/N=C(\\C(=O)N[C@@H]1C(=O)N2C(C(=O)[O-])=C(/C=C/C[n+]3cccc(NC(N)=O)c3)CS[C@H]12)c1csc(N)n1", "µg/mL", 0.025),
]

Below: the item to evaluate.
Query :: Returns the measured MIC for the input molecule. Input: NC(=O)c1ccc[n+](C/C=C/C2=C(C(=O)[O-])N3C(=O)[C@@H](NC(=O)/C(=N\O)c4csc(N)n4)[C@H]3SC2)c1
Result :: 0.05

These measurements were taken from patent US5534508A.
